Kindly supply the reported inhibition at 10 µM values for the records listed here.
Biological target: CYP1A (Homo sapiens, UniProt P05177)
Construct: using isoform-specific substrates incubated with human liver microsomes; tissue Eurofins protocol ITEMG232; host or cells: human liver microsomes
Sequence (P05177 whole entry, canonical isoform): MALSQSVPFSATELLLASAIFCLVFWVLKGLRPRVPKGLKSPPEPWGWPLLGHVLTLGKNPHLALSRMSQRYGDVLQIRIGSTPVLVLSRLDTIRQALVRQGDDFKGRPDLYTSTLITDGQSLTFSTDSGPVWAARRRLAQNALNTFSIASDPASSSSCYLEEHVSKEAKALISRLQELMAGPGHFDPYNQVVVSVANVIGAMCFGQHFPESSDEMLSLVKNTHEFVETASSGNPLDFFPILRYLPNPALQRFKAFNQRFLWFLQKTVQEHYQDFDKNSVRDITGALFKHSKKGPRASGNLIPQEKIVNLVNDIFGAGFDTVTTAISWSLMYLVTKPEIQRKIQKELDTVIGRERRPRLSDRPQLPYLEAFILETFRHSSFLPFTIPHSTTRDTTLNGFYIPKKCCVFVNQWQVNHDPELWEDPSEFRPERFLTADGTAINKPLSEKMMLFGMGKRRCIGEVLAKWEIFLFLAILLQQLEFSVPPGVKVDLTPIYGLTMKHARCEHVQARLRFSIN
Assay: CYP inhibition in human liver microsomes, phenacetin substrate
Assay type: in vitro ADME
Settings: probe phenacetin, read-out: CYP1A Inh %
Unit % implied. Number only.

*Q* Please look up its inhibition at 10 µM: Cc1nccn1Cc1c(F)cc(-c2cc(CC(C)C)sc2S(=O)(=O)NC(=O)NCCO)cc1F
*A* 8

*Q* Please look up its inhibition at 10 µM: Cc1nccn1Cc1ccc(-c2cc(CC(C)C)sc2S(=O)(=O)NC(=O)NCCO)c(F)c1
*A* -9.7

*Q* Please look up its inhibition at 10 µM: Cc1nccn1Cc1ccc(-c2cc(CC(C)C)sc2S(=O)(=O)NC(=O)NCC(C)(C)O)cc1F
*A* 15.5

*Q* Please look up its inhibition at 10 µM: CCc1nccn1Cc1ccc(-c2cc(CC(C)C)sc2S(=O)(=O)NC(=O)NCCO)cc1F
*A* 11.8

*Q* Please look up its inhibition at 10 µM: CC(C)Cc1cc(-c2ccc(Cn3ccnc3C(C)(C)C)c(F)c2)c(S(=O)(=O)NC(=O)NCC(C)(C)O)s1
*A* 2.7

*Q* Please look up its inhibition at 10 µM: Cc1nccn1Cc1ccc(-c2cc(CC(C)C)sc2S(=O)(=O)NC(=O)NCCCO)cc1F
*A* -0.9

*Q* Please look up its inhibition at 10 µM: Cc1nccn1Cc1ccc(-c2cc(CC(C)C)sc2S(=O)(=O)NC(=O)NCCO)cc1F
*A* -26.3

*Q* Please look up its inhibition at 10 µM: CC(C)Cc1cc(-c2ccc(Cn3ccnc3C(C)(C)C)c(F)c2)c(S(=O)(=O)NC(=O)NCCO)s1
*A* 3.5

----------
Biological target: human recombinant AT2 receptor (Homo sapiens)
Sequence (P50052 whole entry): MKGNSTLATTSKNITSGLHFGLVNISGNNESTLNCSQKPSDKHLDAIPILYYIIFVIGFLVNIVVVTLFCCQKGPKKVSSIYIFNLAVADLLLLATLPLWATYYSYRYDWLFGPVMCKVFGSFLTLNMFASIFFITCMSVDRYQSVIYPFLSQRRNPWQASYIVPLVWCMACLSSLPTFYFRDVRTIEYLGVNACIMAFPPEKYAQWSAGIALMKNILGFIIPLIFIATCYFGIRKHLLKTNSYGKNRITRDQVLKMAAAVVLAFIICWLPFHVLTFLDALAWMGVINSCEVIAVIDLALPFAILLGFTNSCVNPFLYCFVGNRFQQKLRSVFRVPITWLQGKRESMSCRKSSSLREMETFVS
Test: biochemical
Conditions: test concentrations 1, 10, 100 and 1000 nM; ligand 125I CGP 42112A; C21* = mean of runs; read-out: AT2 GraFit IC50
Kindly supply the reported IC50 values for the records listed here.
Unit nM implied. Number only.

*Q* Please look up its IC50: CC(C)Cc1cc(-c2ccc(Cn3ccnc3C(C)C)c(F)c2)c(S(=O)(=O)NC(=O)NCCO)s1
*A* 1.9

*Q* Please look up its IC50: Cc1nccn1Cc1ccc(-c2cc(CC(C)C)sc2S(=O)(=O)NC(=O)NCCCO)cc1F
*A* 20

*Q* Please look up its IC50: Cc1nccn1Cc1ccc(-c2cc(CC(C)C)sc2S(=O)(=O)NC(=O)NCCO)cc1F
*A* 5

*Q* Please look up its IC50: CCc1nccn1Cc1ccc(-c2cc(CC(C)C)sc2S(=O)(=O)NC(=O)NCCO)cc1F
*A* 2.5

*Q* Please look up its IC50: CC(C)Cc1cc(-c2ccc(Cn3ccnc3C(C)(C)C)c(F)c2)c(S(=O)(=O)NC(=O)NCCO)s1
*A* 0.64

*Q* Please look up its IC50: CC(C)Cc1cc(-c2ccc(Cn3ccnc3C(C)(C)C)c(F)c2)c(S(=O)(=O)NC(=O)NCC(C)(C)O)s1
*A* 0.95

*Q* Please look up its IC50: Cc1nccn1Cc1ccc(-c2cc(CC(C)C)sc2S(=O)(=O)NC(=O)NCC(C)(C)O)cc1F
*A* 5.4

*Q* Please look up its IC50: Cc1nccn1Cc1c(F)cc(-c2cc(CC(C)C)sc2S(=O)(=O)NC(=O)NCCO)cc1F
*A* 18.4

*Q* Please look up its IC50: Cc1nccn1Cc1ccc(-c2cc(CC(C)C)sc2S(=O)(=O)NC(=O)NCCO)c(F)c1
*A* 45.5

Values compiled from patent US20240174657A1.
